System: cancer cell MCF-7
Assay: MTT cell inhibition assay, MCF-7
Assay type: cell-based
Conditions: Homo sapiens, MCF7, 48 h
property_label: pIC50
For clarity, pIC50 is expressed as the negative log10 of concentration in mol/L.

Cc1ccc2c(c1)C13CCNC1(C)C1(C)c4[nH]c5ccc(C)cc5c4CCN1C3N2 (stereo not shown) yielded pIC50 of 4.53
